Data origin: the DeepSol protein solubility set

- Assay remarks: soluble on expression in E. coli; label from the status in PepcDB or PDB records
Reported endpoint: soluble on expression in E. coli

INSERT INTO assay_data (input_sequence, val) VALUES
  ('MIRSFADRDTELVWLREGAKRVDPRIHKVANRKLHLLDAATTLDALRVTPGNRLETLEGDRVGQYSIRVNDQWRICFRWNDSGPENVEIVDYH', 'not soluble'),
  ('MKIQDYTKEMVDEKSFIDMAYTLLNDKQTTMNLYDIIDEFKSLGGYEYEDIENRIVQFYTDLNTDGRFLNVGENLWGLRDWYSVDDIEEKIAPTIQKFDILDDEDEEDQNLKLLGDDDADEDDDIPAQTDDQETLDESDNDEDDVEMNEADIVIDEDEDEDIAEGEEEAFEDAEDFND', 'not soluble'),
  ('MGSDKIHHHHHHMAYQLRSAALTNYVEVARAVGLDPYQQLRAARISRSVLLDPDIRIPAQAVSRLLESSANAAGIQDFGLRMAETRQLSNLGPLAFAMRQEPTLRRALESMARYLRLQNEAIAMRIEEAEGLVMLRQEALTGVAGSLRQSTDLVVGVLYRVLALVLGPKWRPRSICFSHAAPGSTAMYLRLFGMPVLFNQEFDGIICVASDLEVPLPSYDPTMARQVQQYLDTMLAQSDATISDKVRRLVLALLPSGACTIERVAQHMGVDVRTVQRRLANYDETFSAIVTATRVDLATRYLENRERPLSEVATLLGFGSLSAFSRWFGGHFGCSVSKWRAKGFAKAVKKEGAGRSH', 'not soluble');

* * *

- Assay remarks: soluble on expression in E. coli; label from the status in PepcDB or PDB records
Reported endpoint: soluble on expression in E. coli

INSERT INTO results (input_sequence, val) VALUES
  ('MSLCPLTPVGKYLLLPLWLGVRPFFRALFRIEVIGKENIPEGACIVASNHRSHLDPPVLNAVFPEPLVFLAKEELFKPPFGGILKHMRAIPLRRGSEDISTLEECVSLLKLGCKIGIFPEGTRANPGEFKRAKPGVGFLAINSGFPVLPVYIDGTDRAFPRGKKFPKPFVKVSVVIGKPLEFKGLEPSVKNYKRVANEIMEEIKKLAQSLHRKEGHHHHHH', 'soluble'),
  ('MGSDKIHHHHHHMLLAPEDKLNERRAEYPGIEVHPLKFCSSELQAGHWKFLMGAIGNQAAYIRQLGNIMRKNRNNLSIQAIRDGIQNSSLSDSLKDLADMRLDFAEQYIDDQLNVGSLIRPGRMIVVDVRDEFIEKDEALGLFVVLLQIFSEAKYQGQSFNKLIVFDECHKYIDSPDLVKGLVETVREMRHKGTSVMIASQDPPSVPIELIQLSSQIILHKFNAPDWLKHIQKACIGLKSLTPEKLGALKPGEAFIWSSKASDNAFVSDAMKIQCRPRVTKHGGDTLTAI', 'not soluble'),
  ('TCCHGHGHGHDHGHRHAPRPAVAAIGTLAGNAELRWSDLRIEAMDCPTEERLIRDALGRQPAVESLEFNLMQRLLRVQHRFDSVEPLQKLIAGLGMQAVPLDAGENTDGPSQAPA', 'not soluble'),
  ('MYKNILLGVDTQLKNEKALKEVSKLAGEGTVVTVLNAISEQDAQASIKAGVHLNKLTEERSKRLEKTRKALEDYGIDYDQIIVRGNAKEELLKHANSGKYEIVVLSNRKAEDKKKFVLGSVSHKVAKRATIPVLIVK', 'not soluble'),
  ('MGHHHHHHSHMGSELIGRLAPRLGLAEPDMLRKAEEYLRLSRVKCVGLSARTTETSSAVMCLDLAASWMKCPLDRAYLIKLSGLNKETYQSCLKSFECLLGLNSNIGIRDLAVQFSCIEAVNMASKILKSYESSLPQTQQVDLDLSRPLFTSAALLSACKILKLKVDKNKMVATSGVKKAIFDRLCKQLEKIGQQVDREPGDVATPPRKRKKIVVEAPAKEMEKVEEMPHKPQKDEDLTQDYEEWKRKILENAASAQKATAE', 'not soluble');

Now consider the entry below.
Q) Tell me the measured soluble on expression in E. coli of MGHERDWSLVQVALTDITARKKAEAYLEYLGKHDVLTKLHNRAFYSDELNRLERSALRPVSAIVIDLNGLKEANDKLGHDAGDALLRRVGEVLNGVVTAPNHAARIGGDEFAILLPGADKQVAAAMVDTVYELLKINNQFYSSAPLSLSLGVATTEAGETMESLVRRADMNMYEQKNAYYAALRNRSADNNDTTKGLEHHHHHH , please.
A) not soluble
